- Tested on: Vero E6 infected with SARS-CoV-2
- ASSAY SUMMARY: SARS-CoV-2 infection rate relative to infected DMSO; higher = more infection, active = 60 or less
- TEST SETTINGS: 24 h
PROPERTY MEASURED: SARS-CoV-2 infection rate (%)
Numbers only; they are read as %.

Example cases with answers are listed next.
COMPOUND	SARS-CoV-2 infection rate, %
CC(=O)O/N=C1\C(=O)N(Cc2cc(Cl)ccc2Cl)c2ccc(Cl)cc21 (10 µM)	76
Nc1ncnc2c1c(-c1ccc(Cl)cc1)nn2-c1cccc(-c2cnnn2Cc2cccc(-c3ccccc3)c2)c1 (10 µM)	104
N[C@H](Cc1cc(I)c(Oc2ccc(O)c(I)c2)c(I)c1)C(=O)O [liothyronine-(isomer)] (10 µM)	106

Output SARS-CoV-2 infection rate of C[C@@H](NC(=O)CCc1nc2ccccc2c(=O)[nH]1)c1ccccc1 (10 µM) 95.5

Supply recorded SARS-CoV-2 infection rate for NCCC(O)(P(=O)(O)O)P(=O)(O)O [pamidronate] (10 µM) here. 114

Look up and report measured SARS-CoV-2 infection rate for this entry: Cn1cc([S+](C)[O-])c(=O)c2ccc(F)cc21 (stereo not drawn) [flosequinan] (10 µM) 96.5

Using known records, supply SARS-CoV-2 infection rate for CN1C[C@H](CNC(=O)OCc2ccccc2)C[C@@H]2c3cccc4c3c(cn4C)C[C@H]21 [metergoline] (10 µM) 97.5

// fetch SARS-CoV-2 infection rate given entry N=C(N)NC(=O)c1cnn(-c2cccc3ncccc23)c1C1CC1 [zoniporide] (10 µM) 115
